The entries below are paired with their reported one-nucleolus phenotype percent effect.
- System: MCF10A
- test.method.notes: one-nucleolus phenotype percent effect (relative to siNT 0% and siNOL11 100%); higher = more cells with one nucleolus (ribosome biogenesis inhibition)
- run.parameters: 20 nM; 72 h
Respond with the bare value in %.

Here are 3 sequences together with their reported answers.
query_sequence="CAGAGGGAAUACAGAGGGCAAU [hsa-miR-6873-5p]" unit_abbrev=% result=20
query_sequence="UAGCGGGGAUUCCAAUAUUGG [hsa-miR-4781-5p]" unit_abbrev=% result=46.5
query_sequence="CCCCGGGAACGUCGAGACUGGAGC [hsa-miR-1247-3p]" unit_abbrev=% result=41.2

// returns reported one-nucleolus phenotype percent effect for input AGGACUGGACUCCCGGCAGCCC [hsa-miR-4515]
15.9

one-nucleolus phenotype percent effect for UGUGUGGAUCCUGGAGGAGGCA [hsa-miR-3911] ?
70.3

I'd like to know its one-nucleolus phenotype percent effect. The sequence in question is AUACCUCAUCUAGAAUGCUGUA [hsa-miR-4777-3p]
0.874

# input sequence: AGCCCCCUGGCCCCAAACCC [hsa-miR-4313] ; wanted: its one-nucleolus phenotype percent effect
-4.86

Quick one: one-nucleolus phenotype percent effect for AAUCUGAGAAGGCGCACAAGGU [hsa-miR-3200-5p] ?
2.91

Can you share its one-nucleolus phenotype percent effect? I mean this sequence: UUGGGGAAACGGCCGCUGAGUG [hsa-miR-2110]
45.4

Returns the measured one-nucleolus phenotype percent effect for the input sequence. Input: GGGGGCCGAUACACUGUACGAGA [hsa-miR-128-2-5p]
-25.2

What measured one-nucleolus phenotype percent effect goes with UUAGGGAGUAGAAGGGUGGGGAG [hsa-miR-3162-5p] ?
8.12

====

- System: MCF10A
- test.method.notes: percent viability (nuclei count relative to siNT); higher = more viable cells
- run.parameters: 20 nM; 72 h
# percent viability listing for each entry below
Dear colleague, please return just the value in %, with no unit written.

The examples below pair each entry with its known result.
query_sequence="UCCCAAGGGUGAGAUGCUGCCA [hsa-miR-6814-5p]" readout="percent viability" result=48.6
query_sequence="CAGUGCCUCGGCAGUGCAGCCC [hsa-miR-33b-3p]" readout="percent viability" result=107
query_sequence="UCUUGAAGUCAGAACCCGCAA [hsa-miR-4635]" readout="percent viability" result=45.8
query_sequence="UUGGACAGAAAACACGCAGGAA [hsa-miR-4520a-3p]" readout="percent viability" result=59.1

Requested read-out: percent viability. Entry: CCUAUUCUUGAUUACUUGUUUC [hsa-miR-26a-2-3p]
138

Could you share which percent viability value was measured for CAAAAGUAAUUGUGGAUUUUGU [hsa-miR-548n] ?
137

====

- System: MCF10A
- test.method.notes: 5+ nucleoli phenotype percent effect (relative to siNT 0% and siKIF11 100%); higher = more cells with five or more nucleoli
- run.parameters: 20 nM; 72 h
readout: 5+ nucleoli phenotype percent effect (%)
Please state the figure in %; there is no need to write the unit.

State the recorded 5+ nucleoli phenotype percent effect for this entry: UGAGGUAGUAAGUUGUAUUGUU [hsa-miR-98-5p]
44.8

====

- Test system: MCF10A
- test.method.notes: 5+ nucleoli phenotype percent effect (relative to siNT 0% and siKIF11 100%); higher = more cells with five or more nucleoli
- run.parameters: 20 nM; 72 h
readout: 5+ nucleoli phenotype percent effect (%)
Answer format: numeric, % implied, no suffix.

Known results for sequences:
query_sequence="UAGAGAGGGGAAGGAUGUGAUGU [hsa-miR-6758-5p]" result=-13.9
query_sequence="CGGUGGACUGGAGUGGGUGG [hsa-miR-8071]" result=-15.7
query_sequence="CAACCCUAGGAGAGGGUGCCAUUCA [hsa-miR-652-5p]" result=-17.7

What does the record list as 5+ nucleoli phenotype percent effect for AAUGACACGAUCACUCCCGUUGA [hsa-miR-425-5p] ?
16.6

Entry AGGGAUCGCGGGCGGGUGGCGGCCU [hsa-miR-638] : reported 5+ nucleoli phenotype percent effect = ?
9.85

Give the measured 5+ nucleoli phenotype percent effect of AGGUGGUCCGUGGCGCGUUCGC [hsa-miR-323a-5p] .
-21.1

5+ nucleoli phenotype percent effect for UCUUCUUCCUUUGCAGAGUUGA [hsa-miR-4778-3p] ?
1.95

Which 5+ nucleoli phenotype percent effect value belongs to AAAAGUAAUUGCGGUCUUU [hsa-miR-548ap-5p] ?
39.1

Endpoint output: 5+ nucleoli phenotype percent effect of ACGUUGGCUCUGGUGGUG [hsa-miR-1306-3p] . Value?
-4.59

So what's the measured 5+ nucleoli phenotype percent effect for this one? AGUGGGGUGGGACCCAGCUGUU [hsa-miR-6742-5p]
-35.4

Please report the recorded 5+ nucleoli phenotype percent effect for CUACAAAGGGAAGCCCUUUC [hsa-miR-520d-5p] .
-47.9

====

- Tested on: MCF10A
- test.method.notes: one-nucleolus phenotype percent effect (relative to siNT 0% and siNOL11 100%); higher = more cells with one nucleolus (ribosome biogenesis inhibition)
- run.parameters: 20 nM; 72 h
readout: one-nucleolus phenotype percent effect (%)
API: value field is a number in %; no unit string.

Example entries and their recorded answers appear below.
query_sequence="UGUGACCCUAGAAUAAUUAC [hsa-miR-7973]" result=-2.95
query_sequence="UCUUGUGUUCUCUAGAUCAGU [hsa-miR-581]" result=-3.72
query_sequence="UGGGAGCCAUGAGGGUCUGUGC [hsa-miR-6827-5p]" result=26.3
query_sequence="CAACAAAUCACAGUCUGCCAUA [hsa-miR-7-1-3p]" result=-2.83

May I ask what one-nucleolus phenotype percent effect has been recorded for CUAUACAACUUACUACUUUCCC [hsa-miR-98-3p] ?
-31.6

So what does the record say about one-nucleolus phenotype percent effect for UCAGCUCCUCUCUACCCACAG [hsa-miR-6736-3p] ?
8.25

Which value of one-nucleolus phenotype percent effect has been reported for UGGUGGGCACAGAAUCUGGACU [hsa-miR-541-3p] in the records?
17.6

Endpoint output: one-nucleolus phenotype percent effect of CAAAACCGCAGUAACUUUUGU [hsa-miR-548at-3p] . Value?
37.5

What measured one-nucleolus phenotype percent effect goes with ACAUCCUGCUCCACAGGGCAGAGG [hsa-miR-4793-5p] ?
-10.7

For the sequence shown here, CAAAGAAUUCUCCUUUUGGGCU [hsa-miR-186-5p] , give the reported one-nucleolus phenotype percent effect.
-14.6

Using the record for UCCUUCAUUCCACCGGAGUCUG [hsa-miR-205-5p] , report its one-nucleolus phenotype percent effect.
21

Item GCGCUGACCCGCCUUCUCCGCA [hsa-miR-6825-3p] has what recorded one-nucleolus phenotype percent effect?
-15

Which one-nucleolus phenotype percent effect is listed for GGAUUCCUGGAAAUACUGUUCU [hsa-miR-145-3p] ?
9.95

What value of measured one-nucleolus phenotype percent effect is listed for GUAGCACCUUGCAGGAUAAGGU [hsa-miR-5682] ?
-21.5

Requested field: one-nucleolus phenotype percent effect. Item: AUUGUCCCUCUCCCUUCCCAG [hsa-miR-4646-3p]
-0.307

Request the reported one-nucleolus phenotype percent effect associated with UCCAGUACAGGUCUCUCAUUUC [hsa-miR-4712-5p]
11

So what does the record say about one-nucleolus phenotype percent effect for AGACCCUGGUCUGCACUCUAUC [hsa-miR-504] ?
-10.9

Dear colleague, I am looking for the recorded one-nucleolus phenotype percent effect of the following sequence: UGGAAAAAACUGGUGUGUGCUU [hsa-miR-3148]
-7.81

Requested read-out: one-nucleolus phenotype percent effect. Entry: CCUGUCUGUGCCUGCUGUACA [hsa-miR-3120-5p]
-1.5

For the sequence shown here, CUCUCCUCCCGGCUUC [hsa-miR-4279] , give the reported one-nucleolus phenotype percent effect.
87.9

Would you kindly share the measured one-nucleolus phenotype percent effect for UGAGGGACAGAUGCCAGAAGCA [hsa-miR-3126-5p] ?
40

Recorded one-nucleolus phenotype percent effect for AGCUCUGCUGCUCACUGGCAGU [hsa-miR-3194-3p] , please?
1.77

Bench note: what one-nucleolus phenotype percent effect did ACAGUAGAGGGAGGAAUCGCAG [hsa-miR-936] show?
-2.74

====

- System: MCF10A
- test.method.notes: percent viability (nuclei count relative to siNT); higher = more viable cells
- run.parameters: 20 nM; 72 h
Field: label. Allowed values: True (percent viability < 60%) or False (percent viability >= 60%).

Here's what some known entries look like.
query_sequence="AUGGUCUCCUGUUCUCUGCAG [hsa-miR-6843-3p]" answer_label=True
query_sequence="UGGUAGAGCUGAGGACA [hsa-miR-4451]" answer_label=True
query_sequence="CGGCCCCACGCACCAGGGUAAGA [hsa-miR-874-5p]" answer_label=False
query_sequence="CUCACUGAUCAAUGAAUGCA [hsa-miR-181b-2-3p]" answer_label=False
query_sequence="CAGUGAUUUGAGGAUUAUUGC [hsa-miR-8062]" answer_label=False

Shifting focus to the sequence that follows.
For this sequence, is percent viability lower than 60%? AAAGAUCUGGAAGUGGGAGACA [hsa-miR-3156-5p]
True

From: the supplement of paper PMC10899765
